Tested on: Plasmodium telomeric sequence FPf1T G-quadruplex
Assay: FRET melting assay, FPf1T
Assay type: binding, Plasmodium falciparum
Settings: compound 2 μM, oligonucleotide 0.2 μM, K+ conditions
measurement_kind: ΔTm FPf1T

(Q) Request the reported ΔTm FPf1T associated with CN1CCN(CCCCNCc2cc(-c3ccccc3)c3ccc4c(-c5ccccc5)cc(CNCCCCN5CCN(C)CC5)nc4c3n2)CC1 [Compound 1g]
(A) 13.4 °C

(Q) Which ΔTm FPf1T value is on record for CN1CCN(CCCNCc2cc(-c3ccccc3)c3ccc4c(-c5ccccc5)cc(CNCCCN5CCN(C)CC5)nc4c3n2)CC1 [Compound 1f] ?
(A) 8.8 °C

(Q) Bench note: what ΔTm FPf1T did c1ccc(-c2cc(CNCCc3ccccn3)nc3c2ccc2c(-c4ccccc4)cc(CNCCc4ccccn4)nc23)cc1 [Compound 1m] show?
(A) 1.3 °C

(Q) Find the recorded ΔTm FPf1T belonging to c1ccc(-c2cc(CNCCCN3CCCC3)nc3c2ccc2c(-c4ccccc4)cc(CNCCCN4CCCC4)nc23)cc1 [Compound 1l] and report it.
(A) 15.4 °C

(Q) Would you mind telling me what ΔTm FPf1T value was observed for CN1CCN(CCNCc2cc(-c3ccccc3)c3ccc4c(-c5ccccc5)cc(CNCCN5CCN(C)CC5)nc4c3n2)CC1 [Compound 1e] ?
(A) 9.4 °C

(Q) // lookup ΔTm FPf1T for c1ccc(-c2cc(CNCCc3ccncc3)nc3c2ccc2c(-c4ccccc4)cc(CNCCc4ccncc4)nc23)cc1 [Compound 1o]
(A) 2.9 °C

(Q) Fill in the blank: the reported ΔTm FPf1T of c1ccc(-c2cc(CNCCCN3CCCCC3)nc3c2ccc2c(-c4ccccc4)cc(CNCCCN4CCCCC4)nc23)cc1 [Compound 1k] is ____.
(A) 12.8 °C

(Q) Please look up its ΔTm FPf1T: c1ccc(-c2cc(CNCCN3CCCCC3)nc3c2ccc2c(-c4ccccc4)cc(CNCCN4CCCCC4)nc23)cc1 [Compound 1j]
(A) 5.6 °C

(Q) State the recorded ΔTm FPf1T for this entry: CN(C)CCNCc1cc(-c2ccccc2)c2ccc3c(-c4ccccc4)cc(CNCCN(C)C)nc3c2n1 [Compound 1a]
(A) 1.8 °C

(Q) Field request: ΔTm FPf1T | item: c1ccc(-c2cc(CNCCN3CCOCC3)nc3c2ccc2c(-c4ccccc4)cc(CNCCN4CCOCC4)nc23)cc1 [Compound 1h]
(A) 1.8 °C

(Q) Please report the recorded ΔTm FPf1T for CN(C)CCCCCNCc1cc(-c2ccccc2)c2ccc3c(-c4ccccc4)cc(CNCCCCCN(C)C)nc3c2n1 [Compound 1d] .
(A) 18.8 °C

(Q) Name the reported ΔTm FPf1T value associated with the compound c1ccc(-c2cc(CNCCc3cccnc3)nc3c2ccc2c(-c4ccccc4)cc(CNCCc4cccnc4)nc23)cc1 [Compound 1n]
(A) 2.9 °C

(Q) Quick one: ΔTm FPf1T of c1ccc(-c2cc(CNCCCN3CCOCC3)nc3c2ccc2c(-c4ccccc4)cc(CNCCCN4CCOCC4)nc23)cc1 [Compound 1i] ?
(A) 6.7 °C

(Q) Which ΔTm FPf1T value belongs to CN(C)CCCCNCc1cc(-c2ccccc2)c2ccc3c(-c4ccccc4)cc(CNCCCCN(C)C)nc3c2n1 [Compound 1c] ?
(A) 8.9 °C

(Q) Consider the compound shown here: CN(C)CCCNCc1cc(-c2ccccc2)c2ccc3c(-c4ccccc4)cc(CNCCCN(C)C)nc3c2n1 [Compound 1b] What is its recorded ΔTm FPf1T?
(A) 7.4 °C

(Q) # input compound: c1ccc(-c2cc(CNCCCc3ccncc3)nc3c2ccc2c(-c4ccccc4)cc(CNCCCc4ccncc4)nc23)cc1 [Compound 1p] ; wanted: its ΔTm FPf1T
(A) 3.5 °C

Sourced from paper PMC9699089
